Molecular target: RORγ (UniProt P51449)
Sequence (P51449 1-518): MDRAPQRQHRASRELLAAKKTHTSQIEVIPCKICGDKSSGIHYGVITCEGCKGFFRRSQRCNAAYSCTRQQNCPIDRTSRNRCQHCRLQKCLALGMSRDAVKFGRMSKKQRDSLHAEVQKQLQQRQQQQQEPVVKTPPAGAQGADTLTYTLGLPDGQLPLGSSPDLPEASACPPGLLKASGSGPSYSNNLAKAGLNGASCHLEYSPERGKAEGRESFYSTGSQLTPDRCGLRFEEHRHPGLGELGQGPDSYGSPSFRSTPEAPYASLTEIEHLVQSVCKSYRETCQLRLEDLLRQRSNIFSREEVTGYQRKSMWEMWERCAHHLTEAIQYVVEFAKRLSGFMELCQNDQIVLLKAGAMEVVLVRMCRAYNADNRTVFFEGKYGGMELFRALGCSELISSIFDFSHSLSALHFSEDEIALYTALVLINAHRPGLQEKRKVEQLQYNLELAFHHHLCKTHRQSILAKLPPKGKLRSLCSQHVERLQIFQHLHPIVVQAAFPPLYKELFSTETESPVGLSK
Test: RORγ Gal4 Reporter Gene Assay in 293T cells (firefly and renilla luciferase)
Format: cell-based, human
Conditions: second value of the cell; Gal4 reporter gene assay in 293T cells, firefly luciferase
READOUT_NAME: pIC50 (FF)
One number for each entry.

Examples from the recorded data:
Cc1c(C(=O)NCCC(C)(C)C(=O)O)cc(-c2ccc(S(=O)(=O)NC(C)(C)C(F)(F)F)c(C(F)(F)F)c2)n1CC1CCCCC1 [17/161]: 7.6
Cc1c(-c2cc(C(=O)NC3CCOCC3)c(C)n2CC2CCCCC2)ccc(S(=O)(=O)NC(C)(C)C)c1C [17/273]: 7.2
Cc1c(C(=O)NC2COC2)cc(-c2ccc(S(=O)(=O)N(C)C(C)(C)C)c(C(C)(C)C)c2)n1CC1CCCCC1 [9/5]: 7.2
CC(C)(C)NS(=O)(=O)c1ccc(-c2cc(C(=O)NCCC(C)(C)C(=O)O)c(Cl)n2CC2CCCCC2)cc1C(F)(F)F [Example 22]: 7.5

Would you mind giving pIC50 (FF) for every compound in the list below?
1. Cc1c(C(=O)N[C@@H]2CCOC2)cc(-c2cc(C(C)(C)C)cc(C3(C)CC3)c2)n1CC1CCCCC1 [17/66]
2. Cc1c(C(=O)NCC2CCOCC2)cc(-c2cc(C(C)(C)C)c3c(c2)C2(CCO3)CC2)n1CC1CCCCC1 [1/94]
3. CC(C)(CCNC(=O)c1cc(-c2cc(C(C)(C)C)cc(C3(C)CC3)c2)n(CC2CCCCC2)c1F)C(=O)O [20/5]
4. Cc1c(C(=O)N[C@H]2C[C@H](C(=O)O)C2)cc(-c2ccc(-c3nnc(C(C)(C)C)o3)c(C(C)(C)C)c2)n1CC1CCCCC1 [17/252]

Reply:
[7.4, 7.4, 7.0, 6.5]

Would you mind giving pIC50 (FF) for every compound in the list below?
1. Cc1c(C(=O)N[C@H]2C[C@H](C(=O)O)C2)cc(-c2ccc(S(=O)(=O)NC(C)(C)C)c3ccccc23)n1CC1CCCCC1 [17/240]
2. Cc1c(C(=O)NCC(C)(C)c2nn[nH]n2)cc(-c2cc(C(C)(C)C)cc(C3(C)CC3)c2)n1CC1CCCCC1 [17/77]
3. Cc1c(C(=O)N[C@H]2C[C@H](C(=O)O)C2)cc(-c2cc(C(C)(C)O)cc(C(F)(F)F)c2)n1CC1CCCCC1 [17/307]
4. CCC(C)(C)NS(=O)(=O)c1ccc(-c2cc(C(=O)NCC(C)(C)O)c(C)n2CC2CCCCC2)cc1C(C)(C)C [9/11]
5. Cc1c(C(=O)NCC2(CO)COC2)cc(-c2cc(C(C)(C)C)c3c(c2)C2(CCO3)CC2)n1CC1CCCCC1 [17/8]
6. Cc1c(C(=O)NCCC(C)(C)C(=O)O)cc(-c2cc(C(C)(C)O)cc(C(F)(F)F)c2)n1CC1CCCCC1 [17/308]

Reply:
1. 7.5
2. 8.0
3. 6.2
4. 7.7
5. 7.2
6. 6.5
